targetDesc: human ALX receptor (Homo sapiens, UniProt P25090)
Construct: expressed in transfected cells; host or cells: HEK293 (HEK293-hALXR-Gα16)
Sequence (P25090 whole entry): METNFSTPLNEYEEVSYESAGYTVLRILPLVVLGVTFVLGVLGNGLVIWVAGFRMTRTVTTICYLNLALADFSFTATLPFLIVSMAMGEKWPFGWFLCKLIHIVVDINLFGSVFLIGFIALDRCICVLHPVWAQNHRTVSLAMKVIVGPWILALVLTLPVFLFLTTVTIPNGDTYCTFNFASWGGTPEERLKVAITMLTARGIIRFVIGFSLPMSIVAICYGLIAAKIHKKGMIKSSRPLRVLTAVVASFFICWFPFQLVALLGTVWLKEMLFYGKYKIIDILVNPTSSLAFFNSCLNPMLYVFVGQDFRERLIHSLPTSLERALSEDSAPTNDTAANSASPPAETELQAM
measurementProtocol: Intracellular calcium measurements (FLIPR), agonistic activity in HEK293-hALXR-Gα16 cells
Assay type: cell-based
measurementParameters: Fluo-4 calcium FLIPR, normalized to WKYMVm 10 nM
pEC50: −log10 of the molar value.
readoutLabel: pEC50

Solved cases (3 shown):
CCN(CC)CCCCNC(=O)[C@H]1[C@H](C(=O)Nc2ncc(Br)s2)[C@@H]2C=C[C@H]1C21CC1 (racemic) [Example 270] : 7.27
CC(=O)c1csc(CNC(=O)[C@H]2[C@H](C(=O)NCCCN(C)C)[C@H]3C=C[C@@H]2C32CC2)n1 (racemic) [Example 267] : 6.54
CN(C)CCNC(=O)[C@H]1[C@H](C(=O)NCc2ccc(Br)cc2)[C@@H]2C=C[C@H]1C21CC1 (racemic) [Example 274] : 6.54

P: CNCCNC(=O)[C@H]1[C@H](C(=O)NCc2ccc(Br)cc2)[C@@H]2C=C[C@H]1C21CC1 (racemic) [Example 305]
Q: CC(=O)c1ccc(CNC(=O)[C@H]2[C@H](C(=O)NCCCCN3CCCC3)[C@H]3C=C[C@@H]2C32CC2)cc1 (racemic) [Example 363]
Please compare: P and Q . Report which one has the smaller pEC50 value. Mark your answer with the label of the selected entry.
Q
(Q: 5.01, P: 6.46)

###

targetDesc: human FPRL2 (Homo sapiens, UniProt P25089)
measurementProtocol: Intracellular calcium measurements (FLIPR), agonistic activity in HEK293-hFPRL2-Gα16 cells
measurementParameters: Fluo-4 calcium FLIPR, normalized to GLY14-Humanin 100 nM
pEC50: −log10 of the molar value.
readoutLabel: pEC50

P: O=C(NCCCCN1CC[C@@H](F)C1)[C@H]1[C@H](C(=O)Nc2ccc(Br)cc2)[C@@H]2C=C[C@H]1C21CC1
Q: CN1CCCN(CCCCNC(=O)[C@H]2[C@H](C(=O)Nc3ccc(Br)cc3)[C@@H]3C=C[C@H]2C32CC2)CC1
R: CC(C)(C)OC(=O)N1CCC(NC(=O)C2C(C(=O)Nc3ccc(Br)cc3)C3C=CC2C32CC2)C1 (mixture of isomers)
Order the above molecules by increasing pEC50. Write out the labels following the order that was asked for.
R, P, Q
(R: 5.77, P: 6.76, Q: 7.92)

###

targetDesc: human FPRL2 (Homo sapiens, UniProt P25089)
Sequence (P25089 1-353): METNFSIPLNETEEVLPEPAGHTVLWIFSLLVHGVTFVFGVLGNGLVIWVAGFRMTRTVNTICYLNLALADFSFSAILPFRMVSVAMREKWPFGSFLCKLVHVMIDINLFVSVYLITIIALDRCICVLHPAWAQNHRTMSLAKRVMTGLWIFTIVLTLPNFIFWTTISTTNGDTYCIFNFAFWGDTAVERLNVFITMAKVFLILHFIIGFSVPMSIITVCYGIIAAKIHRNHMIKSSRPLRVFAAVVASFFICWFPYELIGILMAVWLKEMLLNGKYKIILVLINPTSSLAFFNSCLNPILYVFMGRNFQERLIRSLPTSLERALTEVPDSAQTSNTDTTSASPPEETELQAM
measurementProtocol: Intracellular calcium measurements (FLIPR), agonistic activity in HEK293-hFPRL2-Gα16 cells
measurementParameters: Fluo-4 calcium FLIPR, normalized to GLY14-Humanin 100 nM
readoutLabel: EC50 (nM)

See these solved cases before continuing.
COc1ccc(NC(=O)[C@H]2[C@H](C(=O)NCCCCN3CCCC3)[C@H]3C=C[C@@H]2C32CC2)cc1 : 224
O=C(CCc1cccnc1)NC[C@H]1[C@H](C(=O)Nc2ccc(Br)cc2)[C@@H]2C=C[C@H]1C21CC1 (racemic) : 4810

I: COc1ccccc1CCNC(=O)[C@H]1[C@H](C(=O)NCCCCN2CCCC2)[C@H]2C=C[C@@H]1C21CC1 (racemic)
II: CN(C)C(=O)CCC(=O)NC[C@H]1[C@H](C(=O)Nc2ccc(Br)cc2)[C@@H]2C=C[C@H]1C21CC1 (racemic)
III: O=C(NCCCCN1CCCC1)C1C(C(=O)Nc2ccc(Br)cn2)C2C=CC1C21CC1 (racemic)
Sort by EC50, descending. Response field: labels, in requested order.
II, III, I
(II: 6820 nM, III: 404 nM, I: 204 nM)

###

targetDesc: human ALX receptor (Homo sapiens)
measurementProtocol: Intracellular calcium measurements (FLIPR), agonistic activity in HEK293-hALXR-Gα16 cells
measurementParameters: Fluo-4 calcium FLIPR, normalized to WKYMVm 10 nM
readoutLabel: EC50 (µM)

O=C(NCC1CCNCC1)[C@H]1[C@H](C(=O)Nc2ncc(Br)s2)[C@@H]2CC[C@H]1C21CC1 : 0.0073

a: Cc1ccc(CNC(=O)[C@H]2[C@H](C(=O)NCCCCN3CCCC3)[C@H]3C=C[C@@H]2C32CC2)c(C)c1 (racemic)
b: Cc1csc(NC(=O)[C@H]2[C@H](C(=O)NCCCCN3CCCC3)[C@H]3C=C[C@@H]2C32CC2)n1 (racemic)
Input pair: a , b . Output: entry with lower EC50. Write down the label attached to your selection.
a

###

targetDesc: human FPRL2 (Homo sapiens, UniProt P25089)
measurementProtocol: Intracellular calcium measurements (FLIPR), agonistic activity in HEK293-hFPRL2-Gα16 cells
measurementParameters: Fluo-4 calcium FLIPR, normalized to GLY14-Humanin 100 nM
pEC50: −log10 of the molar value.
readoutLabel: pEC50

Completed entries (count: 5):
CCCCC(=O)NC[C@H]1[C@H](C(=O)Nc2ccc(Br)cc2)[C@@H]2C=C[C@H]1C21CC1 (racemic) [Example 167] : 5.43
COCCN(CCOC)C(=O)[C@H]1[C@H](C(=O)Nc2ccc(Br)cc2)[C@@H]2C=C[C@H]1C21CC1 [Example 63] : 5.40
CC(=O)c1csc(CNC(=O)[C@H]2[C@H](C(=O)NCCCN3CCN(C)CC3)[C@H]3C=C[C@@H]2C32CC2)n1 (racemic) [Example 268] : 4.64
O=C(NCCCO)[C@H]1[C@H](C(=O)Nc2ccc(Br)cc2)[C@@H]2C=C[C@H]1C21CC1 [Example 12] : 5.89
CC(C)Cc1cc(CNC(=O)[C@H]2[C@H](C(=O)NCCCCN3CCCC3)[C@H]3C=C[C@@H]2C32CC2)no1 (racemic) [Example 201] : 5.84

P: O=C(NCCCN1CCCC1)[C@H]1[C@H](C(=O)Nc2ccc(Br)cc2)[C@@H]2CC[C@H]1C21CC1 (racemic) [Example 110]
Q: CC(C)(C)CCNC(=O)[C@H]1[C@H](C(=O)Nc2ccc(Br)cc2)[C@@H]2C=C[C@H]1C21CC1 (racemic) [Example 85]
R: CNC(=O)CCNC(=O)[C@H]1[C@H](C(=O)Nc2ccc(Br)cc2)[C@@H]2C=C[C@H]1C21CC1 (racemic) [Example 223]
Sort these molecules on pEC50 so the largest reading comes first. Write the labels in rank order as requested.
P, R, Q
(P: 6.51, R: 5.92, Q: 5.08)

I: O=C(NCCCCO)[C@H]1[C@H](C(=O)Nc2ncc(Br)s2)[C@@H]2CC[C@H]1C21CC1 [Example 405]
II: O=C(NCCCCN1CCCC1)[C@H]1[C@H](C(=O)NCc2cc(F)c(Br)c(F)c2)[C@@H]2C=C[C@H]1C21CC1 [Example 328]
III: CC(C)(C)OC(=O)NCc1ccc(CNC(=O)[C@H]2[C@H](C(=O)Nc3ccc(Br)cc3)[C@@H]3C=C[C@H]2C32CC2)cc1 (racemic) [Example 97]
Ascending by pEC50, please. Answer by listing the labels in the order asked for.
I, III, II
(I: 5.11, III: 5.84, II: 7.22)

a: N#Cc1cnc(NC(=O)[C@H]2[C@H](C(=O)NCCCCN3CCCC3)[C@H]3C=C[C@@H]2C32CC2)s1 (racemic) [Example 130]
b: O=C(NCCCCN1CCCC1)[C@H]1[C@H](C(=O)Nc2ccc(OC(F)(F)F)cc2)[C@@H]2C=C[C@H]1C21CC1 (racemic) [Example 133]
c: Cc1csc(NC(=O)[C@H]2[C@H](C(=O)NCCCCN3CCCC3)[C@H]3C=C[C@@H]2C32CC2)n1 (racemic) [Example 256]
Put these in order: smallest pEC50 first, largest last. Lab note: record answer as labels in requested order.
a, c, b
(a: 5.20, c: 6.46, b: 6.91)

I: CCCCCCNC(=O)[C@H]1[C@H](C(=O)Nc2ccc(Br)cc2)[C@@H]2C=C[C@H]1C21CC1 (racemic) [Example 75]
II: O=C(NCC1CCCCN1)[C@H]1[C@H](C(=O)Nc2ncc(Br)s2)[C@@H]2CC[C@H]1C21CC1 (stereo partly shown) [Example 417]
III: Cc1ccc(CNC(=O)[C@H]2[C@H](C(=O)NCCCCN3CCCC3)[C@H]3C=C[C@@H]2C32CC2)c(C)c1 (racemic) [Example 347]
IV: CC(C)(C)OC(=O)NCCCCCNC(=O)[C@H]1[C@H](C(=O)Nc2ccc(Br)cc2)[C@@H]2C=C[C@H]1C21CC1 (racemic) [Example 68]
Arrange these 4 molecules in increasing order of pEC50. Output the labels ranked as instructed.
I, IV, III, II
